Measured AC50 values are reported for all entries that follow.
Molecular target: Cytochrome P450 2C19 (Homo sapiens)
Sequence (P33261 whole entry): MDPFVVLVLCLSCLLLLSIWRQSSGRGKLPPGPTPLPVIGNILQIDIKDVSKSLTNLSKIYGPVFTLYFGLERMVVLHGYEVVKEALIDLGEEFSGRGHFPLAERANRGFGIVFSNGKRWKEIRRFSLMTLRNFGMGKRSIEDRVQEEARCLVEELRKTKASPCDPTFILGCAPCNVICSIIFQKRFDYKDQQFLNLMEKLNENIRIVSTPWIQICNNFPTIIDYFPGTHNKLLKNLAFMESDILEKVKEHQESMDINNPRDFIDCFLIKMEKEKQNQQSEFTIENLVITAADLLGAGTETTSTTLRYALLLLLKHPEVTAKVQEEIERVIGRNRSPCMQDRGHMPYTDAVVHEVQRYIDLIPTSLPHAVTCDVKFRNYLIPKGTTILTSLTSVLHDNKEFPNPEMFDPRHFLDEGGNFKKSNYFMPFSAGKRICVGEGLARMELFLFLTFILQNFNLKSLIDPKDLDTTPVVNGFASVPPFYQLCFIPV
Assay: Cytochrome panel assay with activity outcomes. Panel member name: p450-cyp2c19 Compounds with AC50 equal or less than 10 uM are considered active
Format: functional
Conditions: read-out: AC50

compound | recorded.measurement
CCOC(=O)CSc1n[nH]c(NC(=O)c2cccc(C(F)(F)F)c2)n1 | 2.51 µM (inconclusive)

Input: Quick check: AC50 of "O=C(Nc1ccc(OC(F)(F)F)cc1)c1n[nH]c(Cn2cncn2)n1" ?
Output: 2.51 µM (inconclusive)

Input: And what about the compound "CCNc1ncc2nc(C)c(=O)n(Cc3ccc(F)cc3)c2n1" ?
Output: 6.31 µM (inconclusive)

Input: And what about the compound "C[C@](N)(COP(=O)(O)O)C(=O)O" ?
Output: 25.1 µM (inconclusive)

Input: And what about the compound "O=C(N/N=C/c1ccncc1)c1cc2c(ccc3ccccc32)o1" ?
Output: 8.91 µM (inconclusive)

Input: And what about the compound "CCOc1c2ccc(C(=O)NCCc3cccs3)cc2nn1CC" ?
Output: 4.47 µM (inconclusive)

Input: And what about the compound "CCOc1cc(NC(=O)c2ccc(OC)cc2)c(OCC)cc1N=C(S)Nc1ccccc1" ?
Output: 2.51 µM (inconclusive)

Input: And what about the compound COc1ccc2c(c1)c(CC(=O)N1CCOCC1)c(C)n2C(=O)c1ccc(Cl)cc1 [INDOMETHACIN MORPHOLINYLAMIDE] ?
Output: 1.58 µM (inconclusive)

Input: And what about the compound "COc1ccc(-n2c(=O)c(-c3cc(F)cc(F)c3)nc3cncnc32)cc1" ?
Output: 10 µM (inconclusive)

Input: And what about the compound "O=C(OC[C@@H](O)CO)c1ccccc1Nc1ccnc2cc(Cl)ccc12" ?
Output: 3.98 µM (inconclusive)

---

Biological target: Replicative DNA helicase DnaB (Mycobacterium tuberculosis, UniProt P9WMR3)
Assay: DnaB intein splicing inhibitors, dose response, biochemical, cell-free fluorescence (AID 449749)
Type: functional
Activity calls are given as the source filed them.
Pick one and only one: active, inactive

For orientation, consider the following solved cases.
compound | category
Cc1cccc(OCC(=O)Oc2ccc(Cl)cc2)c1 | active
CCOC(=O)CSc1n[nH]c(NC(=O)c2cccc(C(F)(F)F)c2)n1 | active
Cc1ccc(-n2nc(C)c(/C=N/NC(=O)c3ccc([N+](=O)[O-])cc3)c2O)c(C)c1 | active

Input: Check the results log: what was the call for CC1=NN(C)C(=O)C1Cc1c(F)cccc1Cl (centres undefined) ?
Output: active

Input: And what about the compound "Cc1cc(C)n(-c2ccc(NN=C(C#N)C#N)cc2)n1" ?
Output: active

Input: And what about the compound "COc1cc(C(c2c(C)[nH][nH]c2=O)c2c(C)[nH][nH]c2=O)ccc1OCc1ccc([N+](=O)[O-])cc1" ?
Output: active

Input: And what about the compound "O=C1NC(=O)C(=Cc2cc3c(cc2[N+](=O)[O-])OCO3)C(=O)N1" ?
Output: inactive

Input: And what about the compound "C/C(CC(=O)Nc1ccc(Cl)cn1)=N\NC(=O)Cc1cccs1" ?
Output: active

Input: And what about the compound "Cn1c(/N=C/c2c(O)ccc3ccccc23)nc2ccccc21" ?
Output: active

Input: And what about the compound "CC[n+]1ccc2cc(OC)c(OC)cc2c1Cc1ccc(OC)c(OC)c1" ?
Output: inactive

Input: And what about the compound "COc1ccc(/C=C2/C(=O)N(c3cccc(F)c3)N=C2C)c(OC)c1" ?
Output: active

Input: And what about the compound "COc1ccc(C(=O)n2nnc3ccccc32)cc1Br" ?
Output: active

Input: And what about the compound Cn1c(SCC(=O)NCC2CCCO2)ncc(C(=O)Nc2ccccc2)c1=O (centres undefined) ?
Output: active

Input: And what about the compound COc1cc(C2C(C#N)=C(N)Oc3[nH]nc(-c4cccnc4)c32)cc(Br)c1O (centres undefined) ?
Output: active

---

Experiment: Luminescence Cell-Based Dose Confirmation HTS to Identify Inhibitors of Platelet Dense Granule Release. [Related pubchem assays: 1663 (Primary HTS), 1678 (Summary of Project)]
Format: functional
Active and inactive are the calls of the source.
Measured EC50 values are reported for all entries that follow.

# annotated cases, reported EC50 shown
compound | EC50
Cc1cc(C)n2nc(N)c(N=Nc3ccccc3)c2n1 | > 112 µM (not active)
Nc1c(Cl)ncnc1N/N=C/c1cccc(O)c1 | 22 µM (active)
Cc1cc(NC(=O)/C=C/c2ccccc2Cl)n(-c2nc3ccccc3[nH]2)n1 | 13.2 µM (active)
COc1nc2ccccc2nc1OC | > 112 µM (not active)

Input: Quick check: EC50 of OC(CNCc1cccc(Cl)c1)c1ccccc1 (stereo not given) ?
Output: 21.2 µM (active)

---

Measured IC50 values are reported for all entries that follow.
Molecular target: Polyadenylate-binding protein 1 (Homo sapiens)
Sequence (P11940 whole entry): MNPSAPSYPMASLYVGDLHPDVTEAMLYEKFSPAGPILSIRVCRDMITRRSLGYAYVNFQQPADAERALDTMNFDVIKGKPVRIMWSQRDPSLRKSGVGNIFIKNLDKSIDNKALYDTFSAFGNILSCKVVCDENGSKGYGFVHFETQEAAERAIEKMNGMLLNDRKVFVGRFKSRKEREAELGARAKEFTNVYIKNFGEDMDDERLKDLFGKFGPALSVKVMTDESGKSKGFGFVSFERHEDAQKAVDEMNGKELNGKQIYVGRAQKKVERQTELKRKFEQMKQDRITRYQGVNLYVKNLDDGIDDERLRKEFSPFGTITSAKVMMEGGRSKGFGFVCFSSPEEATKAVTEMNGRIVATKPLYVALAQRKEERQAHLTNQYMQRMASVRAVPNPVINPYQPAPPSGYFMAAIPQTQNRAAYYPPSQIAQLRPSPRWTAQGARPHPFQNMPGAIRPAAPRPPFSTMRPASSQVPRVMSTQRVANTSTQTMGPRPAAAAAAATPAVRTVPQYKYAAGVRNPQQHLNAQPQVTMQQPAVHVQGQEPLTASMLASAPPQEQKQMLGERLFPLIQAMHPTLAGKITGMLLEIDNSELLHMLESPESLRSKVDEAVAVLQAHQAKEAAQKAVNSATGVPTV
Assay: PABP1 MLLE–PAM2 binding inhibitor potency, dose response, biochemical, fluorescence polarization, FITC-PAM2 peptide (AID 602259)
Format: functional
Conditions: read-out: IC50_Mean
Activity calls are given as the source filed them.

compound | recorded.measurement
CCOC(=O)CN1C(=O)/C(=C2\SC(=S)N(NC(=O)c3cccnc3)C2=O)c2ccccc21 | > 66 µM (inactive)

Field: next compound
Input: Quick check: IC50 of "Cc1ccc(C(=O)N/N=C\c2cc(Br)c(Br)o2)cn1" ?
Output: 46.3 µM (inactive)

---

Experiment: ZM109 Env clade C HIV-1 fusion inhibitors, dose response, HeLa effector, CEM target cells, luciferase, cherry-pick (AID 652058)
Type: functional, cell-based
Activity calls are given as the source filed them.
recorded.endpoint: AC50

# annotated cases, reported AC50 shown
input.smiles | AC50
NC(=S)c1cn([C@@H]2O[C@H](CO)[C@@H](O)[C@H]2O)c2ncnc(N)c12 | < 0.26 µM (active)
CC(C)NC(=O)Nc1ccc2c(c1)C(=O)N([C@@H](C)CO)C[C@@H](C)[C@@H](CN(C)C(=O)Nc1ccc(F)cc1)OCCCC[C@@H](C)O2 | 5.56 µM (active)
COc1ccccc1-c1ccc2c(c1)O[C@H](CN(C)S(=O)(=O)c1ccccc1)[C@H](C)CN([C@H](C)CO)S2(=O)=O | 51.3 µM (active)

Field: next molecule
Input: Quick check: AC50 of "CCN1C(=O)[C@H]2[C@@H](c3ccc(C)cc3)N3C(=O)N(c4cccc(Br)c4)C(=O)[C@@]3(CC)[C@H]2C1=O" ?
Output: 3.01 µM (active)

---

Molecular target: Protein skinhead-1 (Caenorhabditis elegans)
Sequence (P34707 whole entry): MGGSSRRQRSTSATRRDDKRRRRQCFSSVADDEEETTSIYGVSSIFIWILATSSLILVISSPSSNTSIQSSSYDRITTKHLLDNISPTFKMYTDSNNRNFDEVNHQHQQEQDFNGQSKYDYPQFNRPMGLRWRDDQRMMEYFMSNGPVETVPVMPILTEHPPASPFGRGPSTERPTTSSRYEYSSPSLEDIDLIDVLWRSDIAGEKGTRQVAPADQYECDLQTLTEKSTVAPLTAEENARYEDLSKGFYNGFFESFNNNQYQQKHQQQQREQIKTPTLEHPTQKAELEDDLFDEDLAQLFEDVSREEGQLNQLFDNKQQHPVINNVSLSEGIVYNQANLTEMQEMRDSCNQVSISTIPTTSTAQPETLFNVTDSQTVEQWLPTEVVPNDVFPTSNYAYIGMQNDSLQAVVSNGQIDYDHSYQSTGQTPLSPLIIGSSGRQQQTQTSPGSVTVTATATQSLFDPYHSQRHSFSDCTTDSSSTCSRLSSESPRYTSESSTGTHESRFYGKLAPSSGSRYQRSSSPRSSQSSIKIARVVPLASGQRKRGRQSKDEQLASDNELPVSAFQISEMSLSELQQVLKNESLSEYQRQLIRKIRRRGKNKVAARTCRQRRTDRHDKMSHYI
Assay type: functional
Active and inactive are the calls of the source.
Pick one and only one: t for active, f for inactive

For orientation, consider the following solved cases.
compound | category
Cc1ccccc1-c1nc(-c2ccc(Br)o2)no1 | t
CCOc1ccc(NC(=O)C2CCCN(S(=O)(=O)c3c(C)nn(C)c3C)C2)cc1 (configuration not stated) | f
COc1ccc(CN2CCCC(C(=O)c3cccc(Cl)c3)C2)cc1 (configuration not stated) | f
COc1ccc(Cl)cc1C(=O)Nc1ccccc1N1CCCCC1 | f
Cc1ccc(CCNC(=O)c2coc3nc4ccccc4nc23)cc1 | f
CN1CCC(N(C)CC(=O)Nc2ccccc2N2CCOCC2)CC1 | f

Input: Check the results log: what was the call for "Cc1cccc2cc(C#N)c(N3CCCC3)nc12" ?
Output: f

Input: And what about the compound "CCSc1nnc(-c2ccc(Cl)cc2Cl)o1" ?
Output: t

Input: And what about the compound "FC(F)(F)c1cccc(-c2nc(-c3ccncc3)no2)c1" ?
Output: f

---

Biological target: Paired box protein Pax-8 (Homo sapiens)
Sequence (Q06710 whole entry): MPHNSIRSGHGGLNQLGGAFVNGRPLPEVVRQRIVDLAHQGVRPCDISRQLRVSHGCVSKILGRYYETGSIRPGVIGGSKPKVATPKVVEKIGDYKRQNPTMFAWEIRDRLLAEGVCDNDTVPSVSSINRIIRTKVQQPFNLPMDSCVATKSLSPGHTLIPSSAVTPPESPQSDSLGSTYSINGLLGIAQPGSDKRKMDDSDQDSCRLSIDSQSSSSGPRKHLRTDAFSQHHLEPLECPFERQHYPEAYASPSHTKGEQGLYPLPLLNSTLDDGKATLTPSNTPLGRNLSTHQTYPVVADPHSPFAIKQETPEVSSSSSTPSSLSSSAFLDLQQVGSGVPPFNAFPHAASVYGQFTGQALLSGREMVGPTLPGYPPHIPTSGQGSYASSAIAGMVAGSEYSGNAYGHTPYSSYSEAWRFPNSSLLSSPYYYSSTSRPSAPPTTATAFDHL
Assay: inhibitors of PAX8-driven TPO luciferase reporter, dose response, RMG-I cells, cherry-pick (AID 687027);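 also: luciferase reporter driven by Pax8 target thyroperoxidase promoter measured by SteadyGlo luminescence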
Format: functional, cell-based
Active and inactive are the calls of the source.
Measured AC50 values are reported for all entries that follow.

# annotated cases, reported AC50 shown
input.smiles | recorded.endpoint | recorded.measurement
O=C(CCS(=O)(=O)c1ccccc1)Nc1nc2ccc(F)cc2s1 | AC50 | 3.55 µM (active)
C[C@H](CO)N1C[C@H](C)[C@@H](CN(C)S(=O)(=O)c2cccc(F)c2)OCc2ccccc2-c2c(n(C)c3ccccc23)C1=O | AC50 | 11.1 µM (active)
C[C@@H]1CN([C@@H](C)CO)C(=O)Cc2cc(N(C)C)ccc2O[C@H]1CN(C)Cc1ccc(C(=O)Nc2ccccc2N)cc1 | AC50 | 16.6 µM (active)

Input: Missing value: AC50, Paired box protein Pax-8 (Homo sapiens), entry "COC(=O)C1=C(c2ccc(F)cc2OCc2ccccc2)C[C@@H]2CC[C@H]1N2C(=O)NCc1ccc(C)cc1" . Fill in?
Output: 15.1 µM (active)

Input: And what about the compound "C[C@@H]1CN([C@H](C)CO)C(=O)c2cc(NC(=O)Nc3ccc(C(F)(F)F)cc3)ccc2O[C@@H](C)CCCCO[C@@H]1CN(C)Cc1ccc2c(c1)OCO2" ?
Output: 5.56 µM (active)

Input: And what about the compound "O=C(Cc1ccccc1)N1CC[C@H]2[C@H](CO)Nc3ccc(C4=CCCCC4)cc3[C@H]21" ?
Output: 6.67 µM (active)

This collection of values is drawn from ChEMBL document CHEMBL1201862.
